Listing of entries alongside the reported koff.
Target: T1, human IL-2Rβ (human, UniProt P14784 27-240, limits assumed)
T1 construct: Recombinant protein, coated (ELISA) or immobilised on CM5 (SPR); also called hu IL-2R; interleukin 2 receptor β-chain
T1 sequence: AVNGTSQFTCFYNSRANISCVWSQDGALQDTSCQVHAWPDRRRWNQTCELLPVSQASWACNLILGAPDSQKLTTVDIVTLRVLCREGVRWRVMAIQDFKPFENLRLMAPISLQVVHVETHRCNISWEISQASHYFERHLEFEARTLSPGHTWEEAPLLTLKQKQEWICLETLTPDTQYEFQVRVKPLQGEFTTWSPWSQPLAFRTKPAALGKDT
Experiment: SPR (Biacore), P.E. off-rate ranking

binder: FJ1427 P035MP03B08 (VHH, soluble VHH in periplasmic extract; also called clone nr; 250) VHH: QVQLVESGGGLVQAGGSLRLACALSGDVFVRYTMAWFRQAPGKEREFVASVTDSGRTTDYVASVQGRFTVSRDNNKNTVYLQMNSLKPEDTAVYYCAANTDYFQIRSLDRNTWGQGTQVTVSS
koff, s⁻¹: 0.00064
--
binder: FJ1427_P035MP02G11 (VHH, soluble VHH in periplasmic extract; also called clone nr) VHH: QLQLVESGGGLVQAGGSLRLSCAASGRDFSSYAMGWFRQAPGKEREFVVAITWTKRSTDFPDSVKGRFTISRDNAKNTVYLDMNSLKPEDTAVYYCASARGLPVTPLGDIIYWGEGTLVTVSS
koff, s⁻¹: 0.000708
--
binder: FJ1427 P035MP02F12 (VHH, soluble VHH in periplasmic extract; also called clone nr; 190) VHH: QLQLVESGGGLVQTGTSLRLSCAASGHTSRINAMGWFRQFPGKEREFVAAISRNGGSTVYVDSVKGRFTISRDNAKSTVYLQMNSLKPEDTAVYYCTATDAVGWTTRWMTADFGFWGQGTQVTVSS
koff, s⁻¹: 0.00294
--
binder: FJ1427_P035MP06A01 (VHH, soluble VHH in periplasmic extract; also called clone nr) VHH: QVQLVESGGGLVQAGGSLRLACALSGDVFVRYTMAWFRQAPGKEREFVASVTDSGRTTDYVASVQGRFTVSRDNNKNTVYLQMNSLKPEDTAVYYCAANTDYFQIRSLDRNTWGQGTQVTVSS
koff, s⁻¹: 0.000561

Origin of measurements: patent US20240409645A1
